test system: RAW-Dual (murine macrophage reporter line); experiment: IRF reporter (Lucia luciferase) activity fold change vs agonist alone; higher = enhanced IRF activity; settings: modulator concentration 10 µM; agonist: MPLA […]
# IRF reporter per record follows
// no unit string in output, number only

The examples below pair each entry with its known result.
molecule: COc1cc(CNCCc2c[nH]c3ccccc23)cc(OC)c1O
obs value: 1.56
--
molecule: O=C(CCCN1CCC(n2c(=O)[nH]c3ccccc32)CC1)c1ccc(F)cc1 [Prestw-484]
obs value: 1.33
--
molecule: CC(C)(C)NCC(O)c1cc(Cl)c(N)c(Cl)c1 (stereo not drawn) [Prestw-345]
obs value: 0.933
--
molecule: Cc1cc(C(C#N)c2ccc(Cl)cc2)c(Cl)cc1NC(=O)c1cc(I)cc(I)c1O (stereo not drawn)
obs value: 1.02
--
molecule: CC(O)(CS(=O)(=O)c1ccc(F)cc1)C(=O)Nc1ccc(C#N)c(C(F)(F)F)c1 (stereo not drawn)
obs value: 1.23
--
molecule: CC12CCC3C(CCC4CC(O)CCC43C)C1CCC2O (stereo not drawn)
obs value: 1.21

Input CCOc1cc(C=C2N=C(c3cccc(C)c3)OC2=O)ccc1OC(=O)Cc1ccccc1 . Output IRF reporter: 0.964

Input Cc1ccc(-c2nn(-c3ccccc3)cc2C=C2C(=O)NC(=O)NC2=O)o1 . Output IRF reporter: 1.16

Input CCNCC.O=C(O)Cc1ccccc1Nc1c(Cl)cccc1Cl . Output IRF reporter: 1.02

Input CCN(CC)CCNC(=O)C(O)(c1ccccc1)c1ccccc1 . Output IRF reporter: 0.923

Input Cc1ccccc1C(=O)Nc1cc(Cl)c([N+](=O)[O-])cc1Cl . Output IRF reporter: 0.988

----------
system: RAW-Dual (murine macrophage reporter line); test: NF-kB reporter (SEAP) activity fold change vs agonist alone; higher = enhanced NF-kB activity; conditions: modulator concentration 10 µM; agonist: LPS 0.1 ug/mL
Could you label it label 1 if measured NF-kB reporter is 1 or higher, and label 0 otherwise?

Known results for molecules:
molecule: COc1cc(CNCCc2c[nH]c3ccccc23)cc(OC)c1O
tested system: RAW-Dual (murine macrophage reporter line)
class: label 0
--
molecule: CC1=C(O)C(=O)C=C2C1=CC=C1C2(C)CCC2(C)C3CC(C)(C(=O)O)CCC3(C)CCC12C (stereo unspecified)
tested system: RAW-Dual (murine macrophage reporter line)
class: label 0
--
molecule: CC12CCC3C(CCC4CC(O)CCC43C)C1CCC2O (stereo unspecified)
tested system: RAW-Dual (murine macrophage reporter line)
class: label 0

Exercise: Check this molecule for NF-kB reporter at or above 1: CC12CCC3C(CCC4CC(Cl)CCC43C)C1CCC2=O (stereo unspecified)
Solution: label 0

Exercise: Check this molecule for NF-kB reporter at or above 1: CCC1(c2ccccc2)C(=O)N(Cc2ccccc2)C(=O)N(Cc2ccccc2)C1=O
Solution: label 1

Exercise: Check this molecule for NF-kB reporter at or above 1: O=C1NC(=S)NC(=O)C1=Cc1ccc(OCc2ccc(F)cc2)c(Cl)c1
Solution: label 0

----------
tested on: RAW-Dual (murine macrophage reporter line); assay: NF-kB reporter (SEAP) activity fold change vs agonist alone; higher = enhanced NF-kB activity; conditions: modulator concentration 10 µM; agonist: LPS 0.1 ug/mL
measured quantity: NF-kB reporter
// no unit string in output, number only

The examples below pair each entry with its known result.
molecule: Cc1cc(OC(=O)C2CCCCC2)c2c3c(c(=O)oc2c1)CCC3
measured quantity: NF-kB reporter
obs value: 1.01
--
molecule: CCNCC.O=C(O)Cc1ccccc1Nc1c(Cl)cccc1Cl
measured quantity: NF-kB reporter
obs value: 1.08
--
molecule: O=C1NC(=O)N(c2ccccc2F)C(=O)C1=Cc1ccc(OCc2ccc([N+](=O)[O-])cc2)c(Cl)c1
measured quantity: NF-kB reporter
obs value: 1.03

Input OCC(O)Cc1ccc2c(c1)OCO2 (stereo unspecified) . Output NF-kB reporter: 0.831

Input CCC1(C)CC(CCNCc2ccccc2)(c2ccc(C)cc2)CCO1 (stereo unspecified) . Output NF-kB reporter: 1.15

Input CCCCCC(=O)NC(Oc1ccc([N+](=O)[O-])cc1)C(Cl)(Cl)Cl (stereo unspecified) . Output NF-kB reporter: 1.08
